target: MST1R (human); experiment: KINOMEscan competition binding; settings: compound 10.0 µM
Catalogue of kinase still bound, per cent of control values
Numeric only. Scale: %

Solved cases below.
[[record]]
smiles_representation = "CN1C(=O)c2ccccc2N(C)c2nc(Nc3ccc(N4CCC(O)CC4)cc3)ncc21"
test_target = "MST1R (human)"
measure = "kinase still bound, per cent of control"
uom = "%"
value_observed = 94

[[record]]
smiles_representation = "COc1cc(N2CCN(C)CC2)ccc1Nc1ncc2c(n1)N(C)c1sccc1C(=O)N2C"
test_target = "MST1R (human)"
measure = "kinase still bound, per cent of control"
uom = "%"
value_observed = 76

[[record]]
smiles_representation = "COc1cc(N2CCN(C)CC2)ccc1Nc1ncc2c(n1)N(C)c1ccccc1N(C)C2=O"
test_target = "MST1R (human)"
measure = "kinase still bound, per cent of control"
uom = "%"
value_observed = 100

[[record]]
smiles_representation = "O=C1NC(=O)/C(=C/c2c[nH]c(=O)c(-c3ccc(N4CCNCC4)nc3)c2)S1"
test_target = "MST1R (human)"
measure = "kinase still bound, per cent of control"
uom = "%"
value_observed = 93

[[record]]
smiles_representation = "CN1C(=O)c2ccccc2N(C)c2nc(NS(=O)(=O)c3ccc(N)cc3)ncc21"
test_target = "MST1R (human)"
measure = "kinase still bound, per cent of control"
uom = "%"
value_observed = 100


Query :: Identify kinase still bound, per cent of control associated with the compound COc1cc(N2CCC(O)CC2)ccc1Nc1ncc2c(n1)N1CCc3cccc(c31)C(=O)N2C
Result :: 82

Query :: Identify kinase still bound, per cent of control associated with the compound CN1CCN(c2ccc(C(=O)Nc3ncc4c(n3)N(C)c3ccccc3C(=O)N4C)cc2)CC1
Result :: 93

Query :: Identify kinase still bound, per cent of control associated with the compound COc1cc(N2CCN(C)CC2)ccc1Nc1ncc2c(n1)Nc1ccccc1NC2=O
Result :: 100
